Below, each entry is listed with its recorded IC50.
Molecular target: PDE1B (Homo sapiens (Human), UniProt Q01064)
Sequence (Q01064 whole entry): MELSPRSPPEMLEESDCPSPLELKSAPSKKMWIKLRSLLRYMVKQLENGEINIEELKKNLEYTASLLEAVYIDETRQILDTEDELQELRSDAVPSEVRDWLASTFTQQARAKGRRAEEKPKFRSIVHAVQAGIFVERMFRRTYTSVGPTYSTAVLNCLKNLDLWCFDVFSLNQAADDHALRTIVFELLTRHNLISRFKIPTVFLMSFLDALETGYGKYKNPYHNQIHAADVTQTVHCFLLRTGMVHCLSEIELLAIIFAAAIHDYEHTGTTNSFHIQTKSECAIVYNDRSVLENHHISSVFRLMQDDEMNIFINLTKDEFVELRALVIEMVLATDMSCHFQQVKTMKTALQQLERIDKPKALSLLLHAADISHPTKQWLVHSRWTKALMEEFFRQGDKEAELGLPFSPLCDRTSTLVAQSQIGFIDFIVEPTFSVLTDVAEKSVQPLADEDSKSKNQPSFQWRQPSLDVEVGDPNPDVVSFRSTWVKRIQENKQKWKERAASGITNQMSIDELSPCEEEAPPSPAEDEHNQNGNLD
Test: PDE1 inhibition assay (PDE1B)
Assay type: biochemical
Conditions: PDE1B, IC50 (nM), 15 nM tritium labelled cAMP, 1 hr at room temperature, SPA beads
measured_metric: IC50 (nM)

INSERT INTO assay_data (molecule, measured_metric, output_unit, measured_number) VALUES
  ('CCOc1ncccc1-c1cc(NCc2cc[nH]n2)c2c(cnn2C(C)CC)n1 (single isomer, unassigned)', 'IC50', 'nM', 3.2),
  ('CCOc1ncccc1-c1cc(NCc2cc(C)[nH]n2)c2c(n1)c(C)nn2C(C)CC (single isomer, unassigned)', 'IC50', 'nM', 0.042),
  ('CCOc1ncccc1-c1cc(NCc2cc[nH]n2)c2c(n1)c(C)nn2C(C)CC (single isomer, unassigned)', 'IC50', 'nM', 0.56),
  ('[2H]C([2H])([2H])COc1ncccc1-c1cc(NCc2cccnc2OC)c2c(n1)c(C)nn2C(C)C', 'IC50', 'nM', 1.1),
  ('CCOc1ncccc1-c1cc(NCc2ncn(C)n2)c2c(cnn2C(C)CC)n1 (single isomer, unassigned) [Example 140]', 'IC50', 'nM', 1.7),
  ('[2H]C([2H])([2H])C([2H])([2H])Oc1ncccc1-c1cc(NCc2cccnc2OC)c2c(n1)c(C)nn2C(C)C', 'IC50', 'nM', 1.6),
  ('CCOc1ncccc1-c1cc(NCc2scnc2C)c2c(cnn2C(C)C)n1', 'IC50', 'nM', 18);

----------
Recorded pIC50 by entry
Target: PDE1A (Homo sapiens (Human), UniProt P54750)
Sequence (P54750 whole entry): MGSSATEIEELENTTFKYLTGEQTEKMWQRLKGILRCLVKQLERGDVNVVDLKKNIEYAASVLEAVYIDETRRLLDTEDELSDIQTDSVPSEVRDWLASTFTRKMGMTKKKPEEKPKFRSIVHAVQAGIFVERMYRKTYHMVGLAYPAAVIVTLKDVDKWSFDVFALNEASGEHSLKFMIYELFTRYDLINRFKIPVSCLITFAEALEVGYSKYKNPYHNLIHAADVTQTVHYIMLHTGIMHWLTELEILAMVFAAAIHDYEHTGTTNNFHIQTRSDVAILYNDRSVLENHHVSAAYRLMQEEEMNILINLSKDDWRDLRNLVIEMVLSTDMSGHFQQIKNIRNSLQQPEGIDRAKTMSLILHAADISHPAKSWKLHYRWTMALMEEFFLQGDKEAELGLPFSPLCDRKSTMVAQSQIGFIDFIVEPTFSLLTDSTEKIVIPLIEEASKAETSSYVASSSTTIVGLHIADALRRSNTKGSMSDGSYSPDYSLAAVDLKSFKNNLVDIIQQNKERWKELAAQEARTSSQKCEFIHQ
Test: biochemical
Type: biochemical
Conditions: 15 nM tritium labelled cAMP, 1 hr at room temperature, SPA beads
pIC50: −log10 of the molar value.
measured_metric: pIC50

INSERT INTO measurements (molecule, measured_number) VALUES
  ('CCOc1ncccc1-c1cc(NCc2cn(C)nn2)c2c(n1)c(C)nn2C(C)C [Example 6]', 8.32),
  ('CCOc1ncccc1-c1cc(NCc2cnn(C)n2)c2c(n1)c(C)nn2C(C)C [Example 5]', 7.96),
  ('CCOc1ncccc1-c1cc(NCc2cnn(C)c2)c2c(n1)c(C)nn2CC [Example 48]', 7.42),
  ('CCOc1ncccc1-c1cc(NCc2ccc(C)cc2)c2c(cnn2C(C)C)n1 [Example 24]', 6.42),
  ('CCOc1ncccc1-c1cc(NCc2nccnc2OC)c2c(n1)c(C)nn2C(C)C [Example 91]', 7.57);

----------
Molecular target: PDE1B (Homo sapiens (Human))
Assay: PDE1 inhibition assay (PDE1B)
Format: biochemical
Details: 15 nM tritium labelled cAMP, 1 hr at room temperature, SPA beads; read-out: PDE1B, IC50
pIC50: −log10 of the molar value.
Entry class follows pIC50: bucket A (below 8), bucket B (8 to below 9), bucket C (9 or more)

INSERT INTO results (compound, target_entity, classification) VALUES
  ('Cc1nn(C(C)C)c2c(NCc3cnn(C)c3)cc(N3C(=O)OCC3C)nc12 (centres unmarked) [Example 155]', 'PDE1B (Homo sapiens (Human))', 'bucket B'),
  ('Cc1nn(C(C)C)c2c(NCc3cnn(C)c3)cc(N3CCOC3=O)nc12 [Example 151]', 'PDE1B (Homo sapiens (Human))', 'bucket B'),
  ('CCOc1ncccc1-c1cc(NCc2c[nH]c(C)n2)c2c(n1)c(C)nn2C(C)C [Example 46]', 'PDE1B (Homo sapiens (Human))', 'bucket C'),
  ('CCOc1ncccc1-c1cc(NCc2cccn(C)c2=O)c2c(n1)c(C)nn2C(C)C [Example 108]', 'PDE1B (Homo sapiens (Human))', 'bucket C'),
  ('CCOc1ncccc1-c1cc(NCc2csc(C)n2)c2c(n1)c(C)nn2C1COC1 [Example 113]', 'PDE1B (Homo sapiens (Human))', 'bucket B'),
  ('CCOc1ncccc1-c1cc(NCc2cnn(C)c2)c2c(cnn2C(C)C)n1 [Example 25]', 'PDE1B (Homo sapiens (Human))', 'bucket B'),
  ('Cc1nocc1-c1cc(NCc2cnn(C)c2)c2c(n1)c(C)nn2C(C)C [Example 194]', 'PDE1B (Homo sapiens (Human))', 'bucket A'),
  ('CCOc1ncccc1-c1cc(NCc2ccncc2)c2c(cnn2C(C)C)n1 [Example 22]', 'PDE1B (Homo sapiens (Human))', 'bucket A'),
  ('COc1ncccc1-c1cc(NCc2cccnc2C(F)(F)F)c2c(n1)c(C)nn2C(C)C [Example 170]', 'PDE1B (Homo sapiens (Human))', 'bucket B'),
  ('CCOc1ncccc1-c1cc(NCc2ccn(C)n2)c2c(cnn2C(C)C)n1 [Example 19]', 'PDE1B (Homo sapiens (Human))', 'bucket B'),
  ('CCOc1ncccc1-c1cc(NCc2ccccc2)c2c(cnn2C(C)C)n1 [Example 41]', 'PDE1B (Homo sapiens (Human))', 'bucket A'),
  ('CCOc1ncccc1-c1cc(NCc2cccc(C)c2)c2c(cnn2C(C)C)n1 [Example 23]', 'PDE1B (Homo sapiens (Human))', 'bucket A'),
  ('CCOc1ncccc1-c1cc(NCc2ccc(C(F)F)nc2)c2c(n1)c(C)nn2C(C)C [Example 117]', 'PDE1B (Homo sapiens (Human))', 'bucket B'),
  ('Cc1ncoc1-c1cc(NCc2cnn(C)c2)c2c(n1)c(C)nn2C(C)C [Example 200]', 'PDE1B (Homo sapiens (Human))', 'bucket A'),
  ('Cc1nn(C(C)C)c2c(NCc3cnn(C)c3)cc(N3CC(C)OC3=O)nc12 (centres unmarked) [Example 150]', 'PDE1B (Homo sapiens (Human))', 'bucket A'),
  ('CCOc1ncccc1-c1cc(NCc2cccc(C(F)(F)F)n2)c2c(n1)c(C)nn2C(C)C [Example 107]', 'PDE1B (Homo sapiens (Human))', 'bucket B'),
  ('CCOc1ncccc1-c1cc(NCc2nccs2)c2c(cnn2C(C)C)n1 [Example 20]', 'PDE1B (Homo sapiens (Human))', 'bucket A'),
  ('CCOc1ncccc1-c1cc(NCc2ccc(C)s2)c2c(n1)c(C)nn2C(C)C [Example 36]', 'PDE1B (Homo sapiens (Human))', 'bucket B'),
  ('Cc1nn(C(C)C)c2c(NCc3cnn(C)c3)cc(-c3ncco3)nc12 [Example 168]', 'PDE1B (Homo sapiens (Human))', 'bucket B'),
  ('CCOc1ncccc1-c1cc(NCc2cn(C)cn2)c2c(cnn2C(C)C)n1 [Example 21]', 'PDE1B (Homo sapiens (Human))', 'bucket C'),
  ('Cc1csc(-c2cc(NCc3cnn(C)c3)c3c(n2)c(C)nn3C(C)C)n1 [Example 149]', 'PDE1B (Homo sapiens (Human))', 'bucket B'),
  ('CCCOc1ncccc1-c1cc(NCc2cc[nH]n2)c2c(n1)c(C)nn2C(C)C [Example 143]', 'PDE1B (Homo sapiens (Human))', 'bucket C');

----------
Target: PDE1C (Homo sapiens (Human), UniProt Q14123)
Sequence (Q14123 whole entry): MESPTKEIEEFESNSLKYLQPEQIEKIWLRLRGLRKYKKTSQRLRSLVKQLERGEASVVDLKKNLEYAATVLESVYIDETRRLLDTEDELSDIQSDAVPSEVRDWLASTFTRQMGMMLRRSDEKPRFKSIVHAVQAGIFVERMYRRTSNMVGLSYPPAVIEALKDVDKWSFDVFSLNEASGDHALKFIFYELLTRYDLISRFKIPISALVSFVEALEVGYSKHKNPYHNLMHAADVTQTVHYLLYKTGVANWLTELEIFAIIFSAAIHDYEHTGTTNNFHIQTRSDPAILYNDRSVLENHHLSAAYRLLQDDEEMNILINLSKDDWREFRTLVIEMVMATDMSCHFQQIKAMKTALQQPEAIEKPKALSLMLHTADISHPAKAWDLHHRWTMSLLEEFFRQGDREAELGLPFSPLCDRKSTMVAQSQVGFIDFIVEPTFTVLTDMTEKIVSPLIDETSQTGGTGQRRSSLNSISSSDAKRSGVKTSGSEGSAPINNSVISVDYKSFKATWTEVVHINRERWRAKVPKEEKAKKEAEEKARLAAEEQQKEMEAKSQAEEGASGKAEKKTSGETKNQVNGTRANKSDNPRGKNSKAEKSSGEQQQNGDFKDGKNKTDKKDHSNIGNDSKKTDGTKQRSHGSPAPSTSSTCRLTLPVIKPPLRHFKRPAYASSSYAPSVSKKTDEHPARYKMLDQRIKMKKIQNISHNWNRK
Experiment: biochemical
Type: biochemical
Settings: 15 nM tritium labelled cAMP, 1 hr at room temperature, SPA beads
pIC50: −log10 of the molar value.
Listed here are molecules together with their documented pIC50.
measured_metric: pIC50

INSERT INTO assay_data (molecule, measured_number) VALUES
  ('CCCn1cc(CNc2cc(-c3cccnc3OCC)nc3c(C)nn(C(C)C)c23)cn1 [Example 110]', 8.07),
  ('CCOc1ncccc1-c1cc(NCc2nc[nH]n2)c2c(n1)c(C)nn2C(C)CC (single isomer, unassigned) [Example 144]', 7.64),
  ('CCOc1ncccc1-c1cc(NCc2nccc(C)n2)c2c(n1)c(C)nn2C(C)C [Example 75]', 7.48),
  ('CCOc1ncccc1-c1cc(NCc2cnccn2)c2c(n1)c(C)nn2C(C)C [Example 76]', 7.49),
  ('Cc1ncoc1-c1cc(NCc2cnn(C)c2)c2c(n1)c(C)nn2C(C)C [Example 200]', 6.96),
  ('CCOc1ncccc1-c1cc(NCc2nnc(C)o2)c2c(n1)c(C)nn2C(C)C [Example 1]', 7.40),
  ('CCOc1ncccc1-c1cc(NCc2cn(C)c(C)n2)c2c(n1)c(C)nn2C(C)C [Example 51, 2,2,2-trifluoroacetate]', 7.06),
  ('CCOc1ncccc1-c1cc(NCc2cc(CF)no2)c2c(n1)c(C)nn2C(C)C [Example 167]', 7.48);

----------
# reported pIC50; entries follow
Target: UniProtKB Q01064
Assay: PDE1 inhibition assay (PDE1B)
Format: biochemical
Conditions: 15 nM tritium labelled cAMP, 1 hr at room temperature, SPA beads; read-out: PDE1B, IC50
pIC50: −log10 of the molar value.
measured_metric: pIC50

INSERT INTO assay_data (structure_notation, measured_number) VALUES
  ('COc1ncccc1-c1cc(NCc2cnn(C)c2)c2c(n1)c(C)nn2C(C)C', 8.62),
  ('CCOc1ncccc1-c1cc(NCc2nn[nH]n2)c2c(n1)c(C)nn2C(C)C', 9.51),
  ('CCCOc1ncccc1-c1cc(NCc2ncn(C)n2)c2c(n1)c(C)nn2C(C)C', 10.02),
  ('CCOc1ncccc1-c1cc(NCc2c[nH]cn2)c2c(n1)c(C)nn2C(C)C', 9.00),
  ('CCOc1ncccc1-c1cc(NCc2ncc(OC)cn2)c2c(n1)c(C)nn2C(C)C', 7.92),
  ('Cc1nn(C(C)C)c2c(NCc3cnn(C)c3)cc(-c3cccn(C)c3=O)nc12', 7.70),
  ('Cc1cnc(-c2cc(NCc3cnn(C)c3)c3c(n2)c(C)nn3C(C)C)s1', 7.24),
  ('COc1ncccc1-c1cc(NCc2cnc(C)s2)c2c(n1)c(C)nn2C(C)C', 8.20);
